- System: KM12 colon
- procedure_details: NCI-60 one-dose screen, 48 h (100 = growth as untreated, 0 = no growth, -100 = all killed)
- condition_set: 10 µM unless noted
This is part of a sample that, as a whole, favours compounds with a hit. Of some 83,000 tested, about 20% had one in any assay.
Mark Condition met for reported growth of 80% or greater; mark Condition not met for anything smaller.

Answered examples (4):
molecule: Cc1ccc2nc3ccccc3c(NCc3ccc(Cl)cc3)c2c1
experimental_target: KM12 colon
classification: Condition not met

molecule: OCCN1CCN(c2cc(-c3cccc(OC(F)(F)F)c3)nc3ccc(N4CCCC4)cc23)CC1
experimental_target: KM12 colon
classification: Condition not met

molecule: CC1(C)C(N)=Nc2cc(OCCCN3Cc4ccc(OCCc5cn(CC(=O)N6CCC(CCN7CCCC7)CC6)nn5)cc4C3)c(OCC3CC3)cc21
experimental_target: KM12 colon
classification: Condition met

molecule: CCN(C(=O)N1CCN(c2cc3c(cc2F)c(=O)c(C(=O)O)cn3C2CC2)CC1)c1nc(-c2ccccc2)cs1
experimental_target: KM12 colon
classification: Condition not met

Proceed to the following item.
Determine whether this molecule has growth no lower than 80%: Nc1ncnc2c1C(c1ccc([N+](=O)[O-])cc1)c1sc3c(F)cccc3c1O2 (stereo not given)
Condition met

###

- Tested on: SW-620 colon
- procedure_details: NCI-60 one-dose screen, 48 h (100 = growth as untreated, 0 = no growth, -100 = all killed)
- condition_set: 10 µM unless noted
This is part of a sample that, as a whole, favours compounds with a hit. Of some 83,000 tested, about 20% had one in any assay.
Reported growth by item:
Give just the number in %; leave the unit off.

Requested field: growth. Item: Cc1ccc(Cc2cnc(NC(=O)c3cc(C)oc3C)s2)cc1
51.6

// next record O=C1OCC2=C1C(c1cccc(C(F)(F)F)c1)c1cc3c(cc1N2CCO)OCCO3 (stereo not given)
24.5

Continue with O=C(/C=C/C12c3ccccc3C(c3ccccc31)C1C(=O)NC(=O)C12)c1ccncc1 (stereo not given)
13.4

Cool, now Nn1c(-c2ccc(Cl)cc2)nc2c(-c3ccc(Cl)cc3)nc3ccc(Cl)cc3c2c1=O
-66.1

Could you do the same for O=C(N/N=C/c1ccc(O)cc1O)c1cccc(Nc2ccnc(C(F)(F)F)c2)c1 , please?
35.7

###

- System: SW-620 colon
- procedure_details: NCI-60 one-dose screen, 48 h
- condition_set: 10 µM unless noted
The panel holds about 83,000 compounds, 20% with a hit somewhere; the sample as a whole holds those more often. Active and inactive are the calls of the source. How the source made its calls: active means growth percent below 10; inactive means the rest.
Response enum: Y for active, N for inactive

Fill in: this test's call for O=S(=O)(Nc1cc(Sc2cccc3cccnc23)c(O)c2ccccc12)c1ccc(F)cc1 is ___
Y

Check Cc1c(O)c(O)cc2c3c(oc12)CC(c1ccc2c(c1)OCO2)CC3=O (stereo unspecified) too.
N

Same for COc1ccc(Nc2nn3c(SCC(=O)c4ccc(C)cc4)nnc3s2)cc1
N

Record: C[C@@H]1O[C@@H](O[C@H]2[C@@H](OC(=O)[C@]34CCC(C)(C)C[C@H]3C3=CC[C@@H]5[C@@]6(C)C[C@H](O)[C@H](O[C@@H]7O[C@H](CO)[C@@H](O)[C@H](O)[C@H]7O)[C@@](C)(CO)[C@@H]6CC[C@@]5(C)[C@]3(C)C[C@H]4O)OC[C@@H](O)[C@@H]2O)[C@H](O)[C@H](O[C@@H]2OC[C@@H](O)[C@H](O[C@@H]3OC[C@](O)(CO)[C@H]3O[C@@H]3OC[C@@H](O)[C@H](O)[C@H]3O)[C@H]2O)[C@H]1O[C@@H]1OC[C@](O)(CO)[C@H]1O
N

How about this compound: COc1ccc(C2=C(CN)C(O)NC(=NCC(=O)c3ccc4ccccc4c3)N2)cc1 (stereo unspecified)
N

Next record, please: CC(=NCc1ccccc1)c1ccc(O)cc1O
N
